Listed molecules paired with reported pIC50
- assay-protocol: Cytotoxicity against human WPMY-1 cell line cells assessed as inhibition of cell proliferation measured after 72 hrs by MTT assay
- Format: cell-based
- condition-details: WPMY-1, 72 h
pIC50: −log10 of the molar value.

molecule | readout-qualifier | pIC50
C/C(=N\Nc1ccc(C(=O)NCCc2c(C)[nH]c3ccccc23)cn1)c1ccccn1 | = | 6.35
Cc1ccc(/C=N/NC(=S)Nc2ccc(C(=O)NCCc3c[nH]c4ccccc34)cc2)nc1 | = | 4.90
C/C(=N\NC(=S)Nc1ccc(C(=O)NCCc2c(C)[nH]c3ccccc23)cc1)c1ccccn1 | = | 5.45
Cc1[nH]c2ccccc2c1CCNC(=O)c1ccc(C(=O)NO)cc1 | < | 4.70
Cc1[nH]c2ccccc2c1CCNC(=O)c1ccc(NC(=S)N/N=C2/C(=O)Nc3ccccc32)cc1 | < | 4.70
CN(C(=S)NN=C(c1ccccn1)c1ccccn1)C1CCCCC1 | = | 6.15
COc1ccc2[nH]cc(CCNC(=O)c3ccc(NC(=S)N/N=C(\C)c4ccccn4)cc3)c2c1 | = | 5.35
COc1ccc(/C=N/NC(=S)Nc2ccc(C(=O)NCCc3c[nH]c4ccc(OC)cc34)cc2)nc1 | < | 4.70
Cc1[nH]c2ccccc2c1CCNC(=O)c1ccc(NC(=S)N/N=C/c2ccc(O)cn2)cc1 | < | 4.70
Cc1[nH]c2ccccc2c1CCNC(=O)c1ccc(NC(=S)N/N=C/c2ccccc2O)cc1 | = | 5.54
COc1ccc2[nH]cc(CCNC(=O)c3ccc(NC(=S)N/N=C/c4ccc(O)cn4)cc3)c2c1 | < | 4.70
COc1ccc(/C=N/NC(=S)Nc2ccc(C(=O)NCCc3c(C)[nH]c4ccccc34)cc2)nc1 | < | 4.70
Cc1ccc(/C=N/NC(=S)NC2CCC(C(=O)NCCc3c[nH]c4ccccc34)CC2)nc1 (stereo not drawn) | = | 5.81

----------
- Tested on: ECa-109 cell line
- assay-protocol: Antiproliferative activity against human ECa-109 cell line cells assessed as inhibition of cell proliferation measured after 72 hrs by MTT assay
- Type: functional, cell-based
- condition-details: ECa-109, 72 h
outcome-measure: IC50 (µM)

item-smiles | test-target | value-units | readout-qualifier | observed
Cc1ccc(/C=N/NC(=S)Nc2ccc(C(=O)NCCc3c[nH]c4ccc(C)cc34)cc2)nc1 | ECa-109 cell line | µM | = | 1.63
Cc1[nH]c2ccccc2c1CCNC(=O)c1ccc(NC(=S)N/N=C/c2ccc(O)cn2)cc1 | ECa-109 cell line | µM | = | 16.2
Cc1[nH]c2ccccc2c1CCNC(=O)c1ccc(C(=O)NO)cc1 | ECa-109 cell line | µM | > | 20
C/C(=N\NC(=S)Nc1ccc(C(=O)NCCc2c(C)[nH]c3ccccc23)cc1)c1ccccn1 | ECa-109 cell line | µM | = | 6

----------
- Tested on: ECa-109 cell line
- assay-protocol: Antiproliferative activity against human ECa-109 cell line cells assessed as inhibition of cell proliferation measured after 72 hrs by MTT assay
- Format: functional, cell-based
- condition-details: ECa-109, 72 h
outcome-measure: IC50

item-smiles | observed
COc1ccc2[nH]cc(CCNC(=O)c3ccc(NC(=S)N/N=C/c4ccc(O)cn4)cc3)c2c1 | > 20 µM
Cc1[nH]c2ccccc2c1CCNC(=O)c1ccc(NC(=S)N/N=C2/C(=O)Nc3ccccc32)cc1 | > 20 µM
Cc1ncc(CO)c(/C=N/NC(=O)c2ccc(C(=O)NCCc3c(C)[nH]c4ccccc34)cc2)c1O | > 20 µM
